Listed here: items and their measured PBM binding z-score.
- Tested on: FXR:RXRa (NR concentration 270 nM, RXRa partner concentration 90 nM)
- Method: PBM binding z-score (relative to random genomic background probes); higher = stronger binding; sequences stand for … in GC…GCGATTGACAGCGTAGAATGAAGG

Worked examples follow.
[
  {
    "Sequence Text": "TAGCCTAGGTCATGGCCCAGTATACCACGCGAAC",
    "PBM binding z-score": 4.7
  },
  {
    "Sequence Text": "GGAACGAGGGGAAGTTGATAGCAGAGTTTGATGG",
    "PBM binding z-score": 0.0996
  },
  {
    "Sequence Text": "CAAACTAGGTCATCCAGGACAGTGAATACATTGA",
    "PBM binding z-score": 4.46
  }
]

Under FXR:RXRa (NR concentration 270 nM, RXRa partner concentration 90 nM): report PBM binding z-score of `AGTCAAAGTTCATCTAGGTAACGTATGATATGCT` .
6.72

Under FXR:RXRa (NR concentration 270 nM, RXRa partner concentration 90 nM): report PBM binding z-score of `TAGCCTAGATCATGCGGGCCAGTATAGTGTCGGC` .
-2.92

Under FXR:RXRa (NR concentration 270 nM, RXRa partner concentration 90 nM): report PBM binding z-score of `CCGACTGGGACAGAAAGGTTACCATACCATCCGG` .
0.177

Under FXR:RXRa (NR concentration 270 nM, RXRa partner concentration 90 nM): report PBM binding z-score of `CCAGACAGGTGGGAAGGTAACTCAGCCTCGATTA` .
-0.208

Under FXR:RXRa (NR concentration 270 nM, RXRa partner concentration 90 nM): report PBM binding z-score of `TCTAGTTGGTCACGGAAGTCACACACGACGGGTA` .
0.525
